experiment: yeast display, Sf9 membrane polyspecificity reagent, FACS + sequencing; frameworks hold sequencing errors
Measured metric: polyreactivity (PSR sort gate)

[
  {
    "Macromolecule sequence": "QVQLVESGGGLVQAGGSLRLSCAASGSIFPHNAMGWYRQAPGKERELVAAISVSGGSTYYADSVKGRFTISRDNAKNTVYLQMNSLKPEDTAVYYCATRYGRARAYYYWGQGTQVTVSS",
    "Measured metric": "polyreactivity (PSR sort gate)",
    "Measured": "high polyreactivity"
  },
  {
    "Macromolecule sequence": "QVQLVESGGGLVQAGGSLRLSCAASGSTSPGYAMGWYRQAPWKERELVAAITFRGTRTYYADSVKGRFTISRDNSKNTVYLQMNSLKPEDTEVYYCNVVGYGPNRGRVDYWGQGTLVTVSS",
    "Measured metric": "polyreactivity (PSR sort gate)",
    "Measured": "high polyreactivity"
  },
  {
    "Macromolecule sequence": "QVQLVESGGGLVQAGGSLRLSCAASGSTIVIYTMGWYRQAPGKERELVAAISQSGGRTYYADSVKGRFTISRDNSKNTVYLQMNSLKPEDTAVYYCAATWGKHYGYWGQGTQVTVSS",
    "Measured metric": "polyreactivity (PSR sort gate)",
    "Measured": "high polyreactivity"
  },
  {
    "Macromolecule sequence": "QVQLVESGGGLVQAGGSLRLSCAASGSIFTGNAMGWYRQAPGKERELVASITTSTDSTYYADSVKGRFTISRDNAKNTVYLQMNSLNPEDTAVYYCAAEYAVAWKYGLYFYFHFDYWGQGTQVTVSS",
    "Measured metric": "polyreactivity (PSR sort gate)",
    "Measured": "low polyreactivity"
  },
  {
    "Macromolecule sequence": "QVQLVESGGGLVQAGGSLRLSCAASGITFLVNAMGWYRQAPGKERELVATITSGDSTSYADSVKGRFTISRDNAKNTVYLQMNSLKPEDTAVYFCAARPGYWAQYYPVGSRNYYWGQGTQVTVSS",
    "Measured metric": "polyreactivity (PSR sort gate)",
    "Measured": "low polyreactivity"
  },
  {
    "Macromolecule sequence": "QVQLVESGGGLVQAGGRLRLSCAASGRTFVQYAIAWYRQAPGKEREFVAAISSRVGSTYYADSVKGRFTISRDNAKNTVYLQMNSLKPEDTAVYYCNRDLVPRFDYWGQGTQVTVSS",
    "Measured metric": "polyreactivity (PSR sort gate)",
    "Measured": "low polyreactivity"
  },
  {
    "Macromolecule sequence": "QVQLVESGGGLVQAGGSLRLSCAASGRTFGENAMGWYRQAPGKERELVAAITGGDSTNYADSVKGRFTISRDNAKNTVYLQMNSLKPEDTAVYYCAAYGVKVLWTLTTYDYWGQGTQVTVSS",
    "Measured metric": "polyreactivity (PSR sort gate)",
    "Measured": "low polyreactivity"
  },
  {
    "Macromolecule sequence": "QVQLVESGGGLVQAGGSLRLSCAASGSTFGLYAMGWYRQAPGKERELVAAITRGGVTDFADCVKGRFTFSRDNAKYTVYLQMNSLKPEDTAVYYCAAQYKRYHGLFGFWGQGTQVTVSS",
    "Measured metric": "polyreactivity (PSR sort gate)",
    "Measured": "high polyreactivity"
  }
]

I need polyreactivity (PSR sort gate) for every entry listed below, if you could help.
1. QVQLVESGGGLVQAGGSLRLSCAASGRTLYPYAMGWYRQAPGKERELVATITWGDGSTSYADSVKGRFTISRDNAKNTVYLQMNSLKPEDTAVYYCNVRISNTSYRYPTFDYWGQGTQVTVSS
2. QVQLVESGGGLVQAGGSLRLSCAASGLIFGRYAMGWYRQAPGKERELVAAISSSGVRTYYADSVKGRFTISRDNAKNTVYLQMNSLKPEDTAVYYCAAAYWSSREDTVIKRYYWGQGTQVTVSS
3. QVQLVESGGGLVQAGGSLRLSCAAYGITFYWYAMGRYRQAPGKEWELVAGISQSGSRTYYADSVKGRFTISRDNAKNTVYLQMNSLKPEDTAVYYCAARVRWSPTRTFEYWGQGTQVTVSS
4. QVQLVESGGGLVQAGGSLRLSCAASGRTFLKNAMGWYRQAPGKERELVAAITSGGSTNYADSVKGRFTISRDNAKNTVYLQMNSLKPEDTAVYYCNAPSYWYYPVLGSFLTFDYWGQGTQVTVSS

Out:
low polyreactivity
high polyreactivity
high polyreactivity
low polyreactivity

I need polyreactivity (PSR sort gate) for every entry listed below, if you could help.
1. QVHLVESGGGLVQAGGSLRLSCAASGAMGWYRQAPGKERELVAAISSGNTNYADSVKGRFTISRDNAKNTVYLQMNSLKPEDTAVYYCAAEQPYGQKNTGLGVIDLDYWGQGTQVTVSS
2. QVQLVESGGGLVQAGGSLRLSCAASGRSLGWYAMGWYRKAPGKERELVAAISSGVRTNYADSVKGRFTISRDNAKNTVYLQMNSLKPEDTAVYYCAAATYNQDYSYDYWGQGTQVTVSS

Out:
low polyreactivity
low polyreactivity

I need polyreactivity (PSR sort gate) for every entry listed below, if you could help.
1. QVQLVESGGGLVQAGGSLRLSCAASGSIFYDKDSGWYRQAPGKERELFAAITSTGGSTYYADSVKGRFTISRDHAKNTVYLQMNSLKPEDTAVYDCNTPTYLYWGFNTYDYWGQGTQFTVSS
2. QVQLVESGGCLVQAGGSLRLSCAASGRIFRRYAMGWYRQAPGKERELVASITCGGSSTSYADSVKGRFTISRDNAKNTVYLQMNSLKPEDTAVYYCAKGGVFGTYLNEYDYCGQGTQVTVSS
3. QVQLVESGGGLVQAGGSLRLSCAASGRTFRRNAMGWYRQAPGKERELVAAINTGGGTYYADSVKGRFTISRDHAKNTVYLQMNSLKPEDTAVYYCNAGTRYGSFSYVKYDWGQGTQVTVSS
4. QVQLVESGGGLVQAGGSLRLSCSASGSIFPFNAMGWYRQAPGKERELVAAIRWSDGRTYYADSVKGRFTISRDNAKNTVYLQMNSLKPEDTAVYYCAAKSYWGQGTQVTVSS
5. QVQLVESGGGLVQAGGSLRLSCAASGRTLTGYDMGWYRQAPGKERELVAAITWSGGSTFYADSVKGRFTMSRYNAKNTVYLQMNSLKPEDTAVYYCNVTDVTEPSLIYGYYWGQGTQVTVSS

Out:
["low polyreactivity", "low polyreactivity", "high polyreactivity", "high polyreactivity", "low polyreactivity"]

I need polyreactivity (PSR sort gate) for every entry listed below, if you could help.
1. QVQLVESGGGLVQAGGSLRLSCAASVRTYGFNTMGSYRQAPGKERELVAANTTSGGSTYYADSVKGRFTISRDNAKNTVYLQMNSLKPDDSAVYYCAKDYYSKHFPIYEYWGQGTQVTVSS
2. QVQLVESGGGLVQAGGSLRLSCAASGRIYSFYAMGWYRQAPGKERELVAAITYTDGSTYADSVKGRFTISRDNAKNTVYLQLNSLKPEDTSVYYFATRYRWTPYDFWGQGTQVTVSS

Out:
1. low polyreactivity
2. low polyreactivity

Values from the nanobody polyreactivity screen of Harvey et al. (2022)
